# Tested on: ACHN renal
# experiment-notes: NCI-60 one-dose screen, 48 h (100 = growth as untreated, 0 = no growth, -100 = all killed)
# experimental-context: 10 µM unless noted
This is part of a sample that, as a whole, favours compounds with a hit. Of some 83,000 tested, about 20% had one in any assay.
readout-type: growth (%)
Respond numerically; units are % and should not be typed.

Incoming: Indicate the recorded growth value for this molecule: CC(=O)OCC1OC(n2cnc3c(=S)nc(N)[nH]c32)C(OC(C)=O)C1OC(C)=O (stereo not drawn)
Outgoing: 72.1

Incoming: Indicate the recorded growth value for this molecule: COC1(OC)C2(Cl)C(Cl)=C(Cl)C1(Cl)C1COCC12 (stereo not drawn)
Outgoing: 108

Incoming: Indicate the recorded growth value for this molecule: O=Cc1ccc(O)c(O)c1
Outgoing: 114

Incoming: Indicate the recorded growth value for this molecule: CCOc1ccc2c(c1)c(C)cc(C)[n+]2CC
Outgoing: 94.1

Incoming: Indicate the recorded growth value for this molecule: ClCC(Cl)C1CCC(Cl)C(Cl)C1 (stereo not drawn)
Outgoing: 99.3

Incoming: Indicate the recorded growth value for this molecule: CNc1ccccc1C(=O)N/N=C/C=C/c1ccccc1
Outgoing: 58.2

Incoming: Indicate the recorded growth value for this molecule: CC(=O)c1cccc(NS(=O)(=O)c2ccc(C)cc2)c1
Outgoing: 106

Incoming: Indicate the recorded growth value for this molecule: O=C(Nc1ccc([N+](=O)[O-])cc1)C(=O)Nc1ccc([N+](=O)[O-])cc1
Outgoing: 107

Incoming: Indicate the recorded growth value for this molecule: CCOC(=O)C(CCC#N)(CCC#N)C(=O)OCC
Outgoing: 109

Incoming: Indicate the recorded growth value for this molecule: Cc1cc(CO)c(O)c(CO)c1
Outgoing: 103

Incoming: Indicate the recorded growth value for this molecule: CC(C)C(=O)OCCOc1ccc(C(C)(C)C)cc1
Outgoing: 101

Incoming: Indicate the recorded growth value for this molecule: Cc1cc(CC(=O)NCCO)n(CCO)c(=O)c1
Outgoing: 106

Incoming: Indicate the recorded growth value for this molecule: C/C(O)=C(/C=N\C(=S)Nc1ccc(S(=O)(=O)Nc2nccs2)cc1)C(=O)Nc1ccccc1C
Outgoing: 99.9

Incoming: Indicate the recorded growth value for this molecule: COc1ccc(NNS(=O)(=O)O)cc1
Outgoing: 97.4

Incoming: Indicate the recorded growth value for this molecule: Cc1ccc(C)c(CCO)c1
Outgoing: 107

Incoming: Indicate the recorded growth value for this molecule: Oc1ccc2ccccc2c1CN1CCOCC1
Outgoing: 103

Incoming: Indicate the recorded growth value for this molecule: COC(=O)c1ccccc1C(=O)c1c(C)cc(C)cc1C
Outgoing: 101

Incoming: Indicate the recorded growth value for this molecule: O=c1nc(Nc2cccc(Cl)c2)oc2cc(Cl)oc(=O)c12
Outgoing: 81.3

Incoming: Indicate the recorded growth value for this molecule: CN(C)c1ccc2nc3ccc(=[N+](C)C)cc-3oc2c1
Outgoing: 70.5

Incoming: Indicate the recorded growth value for this molecule: CCOC(=O)/C(C)=C\c1ccc(OC)c(OC)c1
Outgoing: 103

Incoming: Indicate the recorded growth value for this molecule: Clc1cccc(Cl)c1C1CSc2ccccc2N=C1c1ccccc1 (stereo not drawn)
Outgoing: 76.8

Incoming: Indicate the recorded growth value for this molecule: CC(c1ccccc1)N(C)C (stereo not drawn)
Outgoing: 109

Incoming: Indicate the recorded growth value for this molecule: CCOC(=O)c1cc(C)[nH]c(=O)c1C#N
Outgoing: 101

Incoming: Indicate the recorded growth value for this molecule: Nc1nc(N)nc(N2CCCCC2)n1
Outgoing: 110

Incoming: Indicate the recorded growth value for this molecule: O=C(OCc1ccccc1)n1nnc2ccccc21
Outgoing: 108

Incoming: Indicate the recorded growth value for this molecule: CCCC(OC(C)=O)c1ccc2c(c1)OCO2 (stereo not drawn)
Outgoing: 111

Incoming: Indicate the recorded growth value for this molecule: O=C(NC(=S)N1CC=CCC1)c1ccccc1
Outgoing: 94.3

Incoming: Indicate the recorded growth value for this molecule: CC1CC2C3CCC4=CC(=O)CCC4(C)C3CCC2(C)C1(O)C(=O)CO (stereo not drawn)
Outgoing: 124

Incoming: Indicate the recorded growth value for this molecule: COC(=O)c1cccc([N+](=O)[O-])c1
Outgoing: 109

Incoming: Indicate the recorded growth value for this molecule: C1Cc2onc(-c3noc4c3CCC4)c2C1
Outgoing: 114

Incoming: Indicate the recorded growth value for this molecule: CC(=O)NNC(=S)N/C=C/c1c(C)ccc([N+](=O)[O-])c1[N+](=O)[O-]
Outgoing: 98.1

Incoming: Indicate the recorded growth value for this molecule: CCNC(=O)OCCc1c2ccccc2nc2ccccc12
Outgoing: 94.1

Incoming: Indicate the recorded growth value for this molecule: NC(CCl)=NCC12CC3CC(CC(C3)C1)C2
Outgoing: 11.8

Incoming: Indicate the recorded growth value for this molecule: CCOC(=O)c1ccc(Nc2sc(C(=O)c3ccc(Br)cc3)c(N)c2C#N)cc1
Outgoing: 44

Incoming: Indicate the recorded growth value for this molecule: BrCc1cccc(C[P+](c2ccccc2)(c2ccccc2)c2ccccc2)c1
Outgoing: 82.7

Incoming: Indicate the recorded growth value for this molecule: CCOC(=O)c1ccc(NC(=O)Nc2nccs2)cc1
Outgoing: 9.97

Incoming: Indicate the recorded growth value for this molecule: Cc1c(-c2ccc(C3CCCCC3)cc2)nc2ccc(F)cc2c1C(=O)O
Outgoing: 43

Incoming: Indicate the recorded growth value for this molecule: Cc1nc(O)cc(=O)[nH]1
Outgoing: 107
